biological target: human recombinant Btk (Homo sapiens (Human)); assay: Human Recombinant Btk Enzyme Assay (LLE_Btk); settings: human recombinant Btk 1 nM, ATP 20 μM, 60 min room temperature
Sequence (Q06187 whole entry): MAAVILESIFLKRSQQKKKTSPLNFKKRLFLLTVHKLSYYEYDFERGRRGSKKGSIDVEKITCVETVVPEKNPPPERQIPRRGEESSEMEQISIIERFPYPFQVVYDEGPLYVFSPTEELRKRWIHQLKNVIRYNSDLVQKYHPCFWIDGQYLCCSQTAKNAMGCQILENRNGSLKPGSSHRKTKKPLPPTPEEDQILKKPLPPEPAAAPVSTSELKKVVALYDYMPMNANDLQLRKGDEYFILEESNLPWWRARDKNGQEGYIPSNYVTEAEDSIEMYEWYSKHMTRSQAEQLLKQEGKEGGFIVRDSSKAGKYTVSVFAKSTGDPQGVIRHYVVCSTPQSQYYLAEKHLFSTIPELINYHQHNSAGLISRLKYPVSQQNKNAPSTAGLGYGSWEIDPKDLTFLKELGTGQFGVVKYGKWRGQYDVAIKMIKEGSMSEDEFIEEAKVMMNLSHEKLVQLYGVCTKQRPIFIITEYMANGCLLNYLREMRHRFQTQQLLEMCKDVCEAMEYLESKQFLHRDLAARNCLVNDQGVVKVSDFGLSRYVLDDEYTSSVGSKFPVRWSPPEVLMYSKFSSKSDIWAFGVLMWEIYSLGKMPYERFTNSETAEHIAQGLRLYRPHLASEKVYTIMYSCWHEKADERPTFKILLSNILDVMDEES
pIC50: −log10 of the molar value.
Quantity Name: pIC50

Look over these answered cases.
CS(=O)(=O)Nc1ccc(-c2ncc(-c3ccc(Oc4ccccc4)cc3)c3c(N)n[nH]c23)cc1 ... 6.55
CC(C)Oc1ccc(-c2cncc3[nH]nc(N)c23)cc1 ... 5.03
Nc1n[nH]c2c(-c3ccc4[nH]ccc4c3)ncc(-c3ccc(Oc4ccccc4)cc3)c12 ... 6.60

P = CS(=O)(=O)Nc1cccc(-c2ncc(-c3ccc(Oc4ccccc4)cc3)c3c(N)n[nH]c23)c1
Q = Cc1ccccc1-c1ncc(-c2ccc(Oc3ccccc3)cc2)c2c(N)n[nH]c12
R = Nc1n[nH]c2cncc(-c3ccc(C(=O)N4CCCC4)cc3)c12
Reorder the items by pIC50, least to greatest. Please list each label once, in the requested order.
R, Q, P

Hello, the source for this data is patent US8846673B2, in case you need it.
